biological target: T1, human ROR1 on cells (HEK293T-hROR1, PANC-1, A549) (human, UniProt Q01973 30-937); assay: flow cytometry, PANC-1 cells
T1 construct: whole, on cells; one molecule for the three cell lines; also called huROR1; cell surface ROR1
T1 sequence (Q01973 30-937): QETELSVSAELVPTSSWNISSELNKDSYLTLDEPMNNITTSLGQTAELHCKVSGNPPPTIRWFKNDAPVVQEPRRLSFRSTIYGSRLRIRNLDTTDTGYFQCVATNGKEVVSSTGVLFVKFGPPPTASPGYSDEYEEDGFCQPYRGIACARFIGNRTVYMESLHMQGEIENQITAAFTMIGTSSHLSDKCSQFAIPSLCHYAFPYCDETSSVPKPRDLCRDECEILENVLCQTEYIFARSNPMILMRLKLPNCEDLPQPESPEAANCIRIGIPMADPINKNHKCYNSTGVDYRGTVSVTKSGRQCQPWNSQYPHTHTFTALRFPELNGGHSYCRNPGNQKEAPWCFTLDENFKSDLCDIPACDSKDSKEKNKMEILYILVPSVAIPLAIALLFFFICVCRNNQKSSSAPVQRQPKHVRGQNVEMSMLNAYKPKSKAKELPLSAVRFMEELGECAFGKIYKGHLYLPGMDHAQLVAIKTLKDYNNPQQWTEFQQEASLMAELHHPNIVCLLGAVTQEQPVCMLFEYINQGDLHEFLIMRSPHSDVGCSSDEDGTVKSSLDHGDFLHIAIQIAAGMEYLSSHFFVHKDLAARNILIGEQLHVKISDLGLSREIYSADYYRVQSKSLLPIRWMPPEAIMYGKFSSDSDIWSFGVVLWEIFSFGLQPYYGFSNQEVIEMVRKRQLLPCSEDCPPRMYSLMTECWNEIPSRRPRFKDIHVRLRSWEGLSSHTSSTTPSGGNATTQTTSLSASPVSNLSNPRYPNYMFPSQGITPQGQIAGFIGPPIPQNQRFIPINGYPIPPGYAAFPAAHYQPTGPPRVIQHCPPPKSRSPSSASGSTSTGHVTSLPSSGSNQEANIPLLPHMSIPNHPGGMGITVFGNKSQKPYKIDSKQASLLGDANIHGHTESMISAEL
MEASURED_METRIC: TOP

* PR007422 (antibody, V domains shown, bivalent form (HCAb) variant of PR005340, no light chain) VH: EVQLVESGGGLVKPGGSLRLSCAASGFTFSDFYMSWIRQAPGKGLEWISYIDSSGRPLAYADSVKGRFTISRDNAKNSLYLQMNSLRAEDTAIYYCARDIPSSSSDWVSLQFDYWGQGTLVTVSS | 73600
* PR007412 (antibody, V domains shown, bivalent form (HCAb) variant of PR005340, no light chain) VH: EVQLVESGGGLVKPGGSLRLSCAASGFTFSDFYMSWIRQAPGKGLEWISYISSSGSWIHYADSVKGRFTISRDNAKNSLYLQMNSLRAEDTAIYYCARDMPSSSSDWVSLQFDYWGQGTLVTVSS | 77200

Now for the binder whose TOP we want.
Would you kindly share the measured TOP for PR007416 (antibody, V domains shown, bivalent form (HCAb) variant of PR005340, no light chain) VH: EVQLVESGGGLVKPGGSLRLSCAASGFTFSDFYMSWIRQAPGKGLEWISYINTRGSPIGYADSVKGRFTISRDNAKNSLYLQMNSLRAEDTAIYYCARDIPSSSSDWVDLQFDYWGQGTLVTVSS ?
87600
